Source listed as ChEMBL document CHEMBL1133100.

test system: L1210; experiment: Compound was tested for the inhibition of L1210: 1565 cell growth in mouse; value given as 1.2, 1.6; format: functional, cell-based
ATTRIBUTE_MEASURED: IC50

Problem: # get_value(readout='IC50', item= C#CCN(c1ccc(C(=O)N[C@@H](CCC(=O)N[C@H](C)c2nnn[nH]2)C(=O)O)cc1)C1CCc2cc3nc(C)[nH]c(=O)c3cc21 (stereo partly specified) )
Solution: 1600 nM

====

system: L1210; assay: Compound was tested for the inhibition of L1210: 1565 cell growth in mouse; value given as 3.9, 3.0; format: functional, cell-based
ATTRIBUTE_MEASURED: pIC50
One number for each entry, as −log10 of the molar value.

Problem: # get_value(readout='pIC50', item= C#CCN(c1ccc(C(=O)N[C@@H](CCC(=O)N[C@@H](CCc2nnnn2CC(=O)O)C(=O)O)C(=O)O)cc1)C1CCc2cc3nc(C)nc(O)c3cc21 (stereo partly specified) )
Solution: 5.41

====

molecular target: Thymidylate synthase (Mus musculus); experiment: Binding affinity against thymidylate synthase from L1210 mouse leukemia cells; type: cell-based; settings: read-out: Ki app
Provide the recorded Ki for the entries that follow.
Please don't drop the unit; write it after the number.

COMPOUND	Ki
C#CCN(c1ccc(C(=O)N[C@@H](CCC(=O)N[C@H](C)C(=O)NS(=O)(=O)c2ccccc2)C(=O)O)cc1)C1CCc2cc3nc(C)nc(O)c3cc21 (some centres not stated)	2.4 nM

Each of the following entries comes with a recorded value; kindly state Ki for each.
1. C#CCN(c1ccc(C(=O)N[C@@H](CCC(=O)N[C@H](CCC(=O)O)c2nnn[nH]2)C(=O)O)cc1)C1CCc2cc3nc(C)[nH]c(=O)c3cc21 (some centres not stated)
2. C#CCN(c1ccc(C(=O)N[C@@H](CCC(=O)N(C)[C@H](CCC(=O)O)C(=O)O)C(=O)O)cc1)C1CCc2cc3nc(C)nc(O)c3cc21 (some centres not stated)
3. C#CCN(c1ccc(C(=O)N[C@@H](CCC(=O)N[C@H](CCC)c2nnn[nH]2)C(=O)O)cc1)C1CCc2cc3nc(C)[nH]c(=O)c3cc21 (some centres not stated)
4. C#CCN(c1ccc(C(=O)N[C@@H](CCC(=O)N[C@H](C)c2nnn[nH]2)C(=O)O)cc1)C1CCc2cc3nc(C)[nH]c(=O)c3cc21 (some centres not stated)
5. C#CCN(c1ccc(C(=O)N[C@@H](CCc2nnn(CC(=O)O)n2)C(=O)O)cc1)C1CCc2cc3nc(C)nc(O)c3cc21 (some centres not stated)
6. C#CCN(Cc1cc2c(O)nc(C)nc2cc1C)c1ccc(C(=O)N[C@@H](CCC(=O)N[C@H](CCC(=O)O)C(=O)O)C(=O)O)cc1
7. C#CCN(c1ccc(C(=O)N[C@@H](CCc2nnnn2CC(=O)N[C@H](C)C(=O)O)C(=O)O)cc1)C1CCc2cc3nc(C)nc(O)c3cc21 (some centres not stated)

Solution:
1: 0.2 nM; 2: 0.78 nM; 3: 2.6 nM; 4: 2.2 nM; 5: 1.7 nM; 6: 2 nM; 7: 2.2 nM

Each of the following entries comes with a recorded value; kindly state Ki for each.
1. C#CCN(c1ccc(C(=O)N[C@@H](CCC(=O)N[C@@H](CCc2nnnn2CC(=O)O)C(=O)O)C(=O)O)cc1)C1CCc2cc3nc(C)nc(O)c3cc21 (some centres not stated)
2. C#CCN(c1ccc(C(=O)N[C@@H](CCC(=O)N[C@H](C)C(=O)O)C(=O)O)cc1)C1CCc2cc3nc(C)nc(O)c3cc21 (some centres not stated)
3. C#CCN(c1ccc(C(=O)N[C@@H](CCCS(=O)(=O)c2nnc[nH]2)C(=O)O)cc1)C1CCc2cc3nc(C)[nH]c(=O)c3cc21 (some centres not stated)
4. C#CCN(c1ccc(C(=O)N[C@@H](CCC(=O)N[C@H](CCC(=O)O)C(=O)O)C(=O)O)cc1)C1CCc2cc3nc(C)nc(O)c3cc21 (some centres not stated)

Solution:
1: 0.26 nM; 2: 1.1 nM; 3: 0.78 nM; 4: 0.42 nM

====

target: Thymidylate synthase (Mus musculus, UniProt P07607); experiment: Compound was tested for the binding affinity against thymidylate synthase from L1210 mouse leukemia cells; value given as 0.9, 2.0; type: cell-based; settings: read-out: Ki app
Sequence (P07607 whole entry): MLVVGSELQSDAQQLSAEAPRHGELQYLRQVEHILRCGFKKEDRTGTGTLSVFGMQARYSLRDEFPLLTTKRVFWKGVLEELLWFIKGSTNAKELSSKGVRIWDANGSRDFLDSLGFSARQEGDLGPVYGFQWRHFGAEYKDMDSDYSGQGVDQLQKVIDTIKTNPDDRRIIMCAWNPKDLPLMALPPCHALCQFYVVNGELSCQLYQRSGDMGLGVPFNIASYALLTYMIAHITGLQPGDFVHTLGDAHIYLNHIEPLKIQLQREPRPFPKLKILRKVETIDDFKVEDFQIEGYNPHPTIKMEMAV
ATTRIBUTE_MEASURED: pKi
Give bare numbers, as −log10 of the molar value.

Problem: # get_value(readout='pKi', item= C#CCN(c1ccc(C(=O)N[C@@H](CCc2nnnn2CCCC(=O)O)C(=O)O)cc1)C1CCc2cc3nc(C)nc(O)c3cc21 (stereo partly specified) )
Solution: 8.70

====

tested on: L1210; assay: Compound was tested for the inhibition of L1210: 1565 cell growth in mouse.; assay type: functional, cell-based
Provide the recorded pIC50 for the entries that follow.
Numbers only, as −log10 of the molar value.

Observe how each entry below is paired with its result.
MOLECULE	pIC50
C#CCN(Cc1cc2c(O)nc(C)nc2cc1C)c1ccc(C(=O)N[C@@H](CCC(=O)N[C@H](CCC(=O)O)C(=O)O)C(=O)O)cc1	4.85
C#CCN(c1ccc(C(=O)N[C@@H](CCc2nnnn2CC(=O)N[C@H](C)C(=O)O)C(=O)O)cc1)C1CCc2cc3nc(C)nc(O)c3cc21 (stereo partly drawn)	4.89
C#CCN(c1ccc(C(=O)N[C@@H](CCC(=O)N[C@H](CCC(=O)O)c2nnn[nH]2)C(=O)O)cc1)C1CCc2cc3nc(C)[nH]c(=O)c3cc21 (stereo partly drawn)	5.89
C#CCN(c1ccc(C(=O)N[C@@H](CCCS(=O)(=O)c2nnc[nH]2)C(=O)O)cc1)C1CCc2cc3nc(C)[nH]c(=O)c3cc21 (stereo partly drawn)	6.17
C#CCN(c1ccc(C(=O)N[C@@H](CCc2nnnn2CCCC(=O)O)C(=O)O)cc1)C1CCc2cc3nc(C)nc(O)c3cc21 (stereo partly drawn)	5.64

Each of the following entries comes with a recorded value; kindly state pIC50 for each.
1. C#CCN(c1ccc(C(=O)N[C@@H](CCC(=O)N(C)[C@H](CCC(=O)O)C(=O)O)C(=O)O)cc1)C1CCc2cc3nc(C)nc(O)c3cc21 (stereo partly drawn)
2. C#CCN(c1ccc(C(=O)N[C@@H](CCC(=O)N[C@H](C)C(=O)O)C(=O)O)cc1)C1CCc2cc3nc(C)nc(O)c3cc21 (stereo partly drawn)
3. C#CCN(c1ccc(C(=O)N[C@@H](CCC(=O)N[C@H](CCC(=O)O)C(=O)O)C(=O)O)cc1)C1CCc2cc3nc(C)nc(O)c3cc21 (stereo partly drawn)

Solution:
1: 5.36; 2: 5.85; 3: 5.66

====

molecular target: Thymidylate synthase (Mus musculus); assay: Compound was tested for the binding affinity against thymidylate synthase from L1210 mouse leukemia cells; value given as 2.4,1.8; type: cell-based; conditions: read-out: Ki app
ATTRIBUTE_MEASURED: Ki (nM)
Answers are plain numbers, in nM.

Problem: Reported Ki for Thymidylate synthase (Mus musculus), given C#CCN(c1ccc(C(=O)N[C@@H](CCc2nnnn2CC(=O)O)C(=O)O)cc1)C1CCc2cc3nc(C)nc(O)c3cc21 (stereo partly specified) ?
Solution: 2.4
